Experiment: Intrinsic clearance in rat liver microsomes
Type: ADME, Microsome
Settings: read-out: CLH
MEASURE_NAME: CLint scaled (mL/min/kg)

P = CC(C)Oc1cc(Oc2cnc(C(=O)N(C)C)c(F)c2)cc(-c2nccc(=O)[nH]2)c1
Q = Cc1cnc(-c2cc(Oc3ccc(S(C)(=O)=O)cc3)cc(OC(C)C)c2)[nH]c1=O
[ask] Lowest CLint scaled? choose P or Q Label of pick, please.
[reply] P

* * *

Experiment: Lipophilicity, log D of the compound by shake-flask method
Assay type: physicochemical
Conditions: octanol/water
MEASURE_NAME: logD

Below: 6 compounds and their reported logD.
Cc1cc(=O)[nH]c(-c2cc(Oc3ccc(S(C)(=O)=O)cc3)cc(OC(C)C)c2)n1 ... 2.43
CC(C)Oc1cc(Oc2ccc(S(C)(=O)=O)cc2)cc(-c2cccc(=O)[nH]2)c1 ... 2.82
CC(C)Oc1cc(Oc2cnc(C(=O)N(C)C)nc2)cc(-c2nccc(=O)[nH]2)c1 ... 0.97
CC(C)Oc1cc(Oc2ccc(S(C)(=O)=O)cc2)cc(-c2nccc(=O)[nH]2)c1 ... 2.14
CC(C)Oc1cc(Oc2ccc(S(C)(=O)=O)cc2)cc(-c2cncc(=O)[nH]2)c1 ... 2.27
Cc1cnc(-c2cc(Oc3cnc(C(=O)N(C)C)nc3)cc(OC(C)C)c2)[nH]c1=O ... 1.48

P = CC(C)Oc1cc(Oc2ccc(S(C)(=O)=O)cc2)cc(-c2ncc(Cl)c(=O)[nH]2)c1
Q = C[C@@H](CO)Oc1cc(Oc2cnc(C(=O)N(C)C)nc2)cc(-c2nccc(=O)[nH]2)c1
[ask] Please tell me which of the two, P or Q , has the higher reported logD value. Label of pick, please.
[reply] P
(P: 2.04, Q: -0.02)

a = COc1cnc(-c2cc(Oc3ccc(S(C)(=O)=O)cc3)cc(OC(C)C)c2)[nH]c1=O
b = COC[C@H](C)Oc1cc(Oc2cnc(C(=O)N(C)C)nc2)cc(-c2nccc(=O)[nH]2)c1
[ask] Lowest logD? choose a or b Label of pick, please.
[reply] b
(b: 0.43, a: 2.21)

P = CN(C)C(=O)c1ncc(Oc2cc(OC3CCCC3)cc(-c3nccc(=O)[nH]3)c2)cn1
Q = COC[C@H](C)Oc1cc(Oc2cnc(C(=O)N(C)C)cn2)cc(-c2nccc(=O)[nH]2)c1
[ask] Lowest logD? choose P or Q Label of pick, please.
[reply] Q

* * *

Assay: Lipophilicity, log D of the compound by shake-flask method
Format: physicochemical
Conditions: octanol/water
MEASURE_NAME: logD

Cc1ccc(NC(=O)c2cc(Oc3ccc(S(C)(=O)=O)cc3)cc(OC(C)C)c2)nc1 ... 4.05

1 = CCc1cnc(-c2cc(Oc3ccc(S(C)(=O)=O)cc3)cc(OC(C)C)c2)[nH]c1=O
2 = CCC(CC)Oc1cc(Oc2cnc(C(=O)N(C)C)nc2)cc(-c2nccc(=O)[nH]2)c1
[ask] Please tell me which of the two, 1 or 2 , has the higher reported logD value. Label of pick, please.
[reply] 1
(1: 3.11, 2: 1.91)

* * *

Assay: Intrinsic clearance in human liver microsomes
Assay type: ADME, Microsome
Details: read-out: CLH
CLint scaled values by entry

Below: 8 compounds and their reported CLint scaled.
CC(C)Oc1cc(Oc2cnc(C(=O)N(C)C)c(F)c2)cc(-c2nccc(=O)[nH]2)c1 ... 8.3 mL/min/kg
CNS(=O)(=O)c1ccc(Oc2cc(O[C@@H](C)CO)cc(-c3ncc(C)c(=O)[nH]3)c2)cc1 ... < 8 mL/min/kg
CCS(=O)(=O)c1ccc(Oc2cc(O[C@@H](C)CO)cc(-c3nccc(=O)[nH]3)c2)cc1 ... < 8 mL/min/kg
COC[C@H](C)Oc1cc(Oc2cnc(C(=O)N(C)C)nc2)cc(-c2nccc(=O)[nH]2)c1 ... < 8 mL/min/kg
C[C@@H](CO)Oc1cc(Oc2cnc(C(=O)N(C)C)nc2)cc(-c2nccc(=O)[nH]2)c1 ... < 8 mL/min/kg
CC(C)Oc1cc(Oc2ccc(S(C)(=O)=O)cc2)cc(-c2ncc(Cl)c(=O)[nH]2)c1 ... < 8 mL/min/kg
CC(C)Oc1cc(Oc2cnc(C(=O)N(C)C)nc2)cc(-c2nccc(=O)[nH]2)c1 ... < 8 mL/min/kg
Cc1cnc(-c2cc(Oc3ccc(S(=O)(=O)N(C)C)cc3)cc(O[C@@H](C)CO)c2)[nH]c1=O ... 12 mL/min/kg

[ask] Request the reported CLint scaled associated with CN(C)C(=O)c1ncc(Oc2cc(OC3CCCC3)cc(-c3nccc(=O)[nH]3)c2)cn1
[reply] < 8 mL/min/kg

[ask] Next up: CC(C)Oc1cc(Oc2ccc(S(C)(=O)=O)cc2)cc(-c2cncc(=O)[nH]2)c1
[reply] 11 mL/min/kg

[ask] Next up: COC[C@H](C)Oc1cc(Oc2cnc(C(=O)N(C)C)cn2)cc(-c2nccc(=O)[nH]2)c1
[reply] < 8 mL/min/kg

[ask] Next up: Cc1cnc(-c2cc(Oc3ccc(S(C)(=O)=O)cc3)cc(OC(C)C)c2)[nH]c1=O
[reply] < 8 mL/min/kg

[ask] Next up: CC(C)Oc1cc(Oc2cnc(C(=O)N(C)C)cn2)cc(-c2nccc(=O)[nH]2)c1
[reply] < 8 mL/min/kg

[ask] Next up: Cc1ccc(NC(=O)c2cc(Oc3ccc(S(C)(=O)=O)cc3)cc(OC(C)C)c2)nc1
[reply] 17 mL/min/kg

[ask] Next up: CNS(=O)(=O)c1ccc(Oc2cc(OC(C)C)cc(-c3nccc(=O)[nH]3)c2)cc1
[reply] < 8 mL/min/kg

[ask] Next up: CC(C)Oc1cc(Oc2ccc(S(C)(=O)=O)cc2)cc(-c2cccc(=O)[nH]2)c1
[reply] < 8 mL/min/kg

[ask] Next up: COc1cnc(-c2cc(Oc3ccc(S(C)(=O)=O)cc3)cc(OC(C)C)c2)[nH]c1=O
[reply] < 8 mL/min/kg

[ask] Next up: Cc1cc(=O)[nH]c(-c2cc(Oc3ccc(S(C)(=O)=O)cc3)cc(OC(C)C)c2)n1
[reply] < 8 mL/min/kg

The origin of these recorded values is ChEMBL document CHEMBL2407069.
